- SYSTEM_TESTED: T1, alpha-s1 casein from Bos taurus
- T1 chain: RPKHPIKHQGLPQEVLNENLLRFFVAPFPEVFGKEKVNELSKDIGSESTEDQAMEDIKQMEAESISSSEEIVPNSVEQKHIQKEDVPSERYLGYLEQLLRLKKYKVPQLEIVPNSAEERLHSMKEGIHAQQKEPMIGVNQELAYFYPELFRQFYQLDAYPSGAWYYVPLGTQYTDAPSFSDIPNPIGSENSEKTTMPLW
ENDPOINT_NAME: (αSN1-1)/(αSN1), 24 hours, 11° C.

>  <PROTEIN>
camel chymosin variant #139 (F223L) (protein) GKVAREPLTSYLDSQYFGKIYIGTPPQEFTVVFDTGSSDLWVPSIYCKSNVCKNHHRFDPRKSSTFRNLGKPLSIHYGTGSMEGFLGYDTVTVSNIVDPNQTVGLSTEQPGEVFTYSEFDGILGLAYPSLASEYSVPVFDNMMDRHLVARDLFSVYMDRNGQGSMLTLGAIDPSYYTGSLHWVPVTLQQYWQFTVDSVTINGVAVACVGGCQAILDTGTSVLLGPSSDILKIQMAIGATENRYGEFDVNCGNLRSMPTVVFEINGRDYPLSPSAYTSKDQGFCTSGFQGDNNSELWILGDVFIREYYSVFDRANNRVGLAKAI

>  <ENDPOINT_NAME>
(αSN1-1)/(αSN1), 24 hours, 11° C.

>  <MEAS_VALUE>
4.3

$$$$
>  <PROTEIN>
camel chymosin variant #154 (D290M) (protein) GKVAREPLTSYLDSQYFGKIYIGTPPQEFTVVFDTGSSDLWVPSIYCKSNVCKNHHRFDPRKSSTFRNLGKPLSIHYGTGSMEGFLGYDTVTVSNIVDPNQTVGLSTEQPGEVFTYSEFDGILGLAYPSLASEYSVPVFDNMMDRHLVARDLFSVYMDRNGQGSMLTLGAIDPSYYTGSLHWVPVTLQQYWQFTVDSVTINGVAVACVGGCQAILDTGTSVLFGPSSDILKIQMAIGATENRYGEFDVNCGNLRSMPTVVFEINGRDYPLSPSAYTSKDQGFCTSGFQGMNNSELWILGDVFIREYYSVFDRANNRVGLAKAI

>  <ENDPOINT_NAME>
(αSN1-1)/(αSN1), 24 hours, 11° C.

>  <MEAS_VALUE>
4.6

$$$$
